System: RPMI-8226 leukemia
Test: NCI tumour cell line growth inhibition, 48 h
RECORDED_METRIC: TGI

- MOLECULE: "Cc1nc2c(s/c(=N\\N)n2-c2ccccc2)c(=O)[nH]1"
  RECORDED_METRIC: "TGI"
  READOUT_VALUE: "> 100 µM"
- MOLECULE: "C/C(=C\\c1csc(C)n1)[C@@H]1C[C@@H]2O[C@]2(C)CCC[C@H](C)[C@H](O)[C@@H](C)C(=O)C(C)(C)[C@@H](O)CC(=O)O1 (tested in a mixture with another compound)"
  RECORDED_METRIC: "TGI"
  READOUT_VALUE: "> 0.172 µM"
- MOLECULE: "CCN(CC)/C(=C\\Cl)Nc1ccccn1"
  RECORDED_METRIC: "TGI"
  READOUT_VALUE: "> 100 µM"
- MOLECULE: "N#Cc1c(C(N)=O)ncn1Cc1ccccc1"
  RECORDED_METRIC: "TGI"
  READOUT_VALUE: "> 100 µM"
- MOLECULE: "CCOC(=O)Cc1nc2nn(Cc3ccccc3)cc2c(=O)[nH]1"
  RECORDED_METRIC: "TGI"
  READOUT_VALUE: "> 100 µM"
- MOLECULE: "Cc1ccc(C2=NN(C)COC2C(F)(F)F)cc1 (stereo unspecified)"
  RECORDED_METRIC: "TGI"
  READOUT_VALUE: "> 100 µM"
- MOLECULE: "C/C(=N\\[N+](C)(C)C)C(c1ccccc1)C1(c2ccccc2)C(c2ccccc2)=C1c1ccccc1 (stereo unspecified)"
  RECORDED_METRIC: "TGI"
  READOUT_VALUE: "> 100 µM"
- MOLECULE: "COC1=CC(C)C2C[C@H]3O[C@H](O)C[C@H]4C(C)C(=O)C(O)C([C@@]2(C)C1=O)[C@@]34C (stereo partly specified)"
  RECORDED_METRIC: "TGI"
  READOUT_VALUE: "> 100 µM"
- MOLECULE: "CCCCC1(OC(=O)CCC(=O)O)CCC2(CCC(C)C(C/C=C(C)/C=C/C(O)C(C)/C=C/C(=O)O)O2)OC1CC/C(C)=C/C(=O)O (stereo unspecified)"
  RECORDED_METRIC: "TGI"
  READOUT_VALUE: "> 37.3 µM"
- MOLECULE: "NC(=S)N/N=C1\\C(=O)N(c2cccc([N+](=O)[O-])c2)C(=O)C1C(=O)Nc1cccc([N+](=O)[O-])c1 (stereo unspecified)"
  RECORDED_METRIC: "TGI"
  READOUT_VALUE: "> 100 µM"
- MOLECULE: "Cn1c(Cc2ccccc2)nc2cc3ccccc3cc21"
  RECORDED_METRIC: "TGI"
  READOUT_VALUE: "34.3 µM"

###

System: K-562 leukemia
Assay: NCI tumour cell line growth inhibition, 48 h; in the data active = GI50 below about 0.43 µM; inactive = the rest
Outcome codes: active, inactive

- MOLECULE: "C=C1C(=O)O[C@H]2[C@H]1CC/C(COC(=O)NCCc1c[nH]c3ccccc13)=C\\CC[C@@]1(C)O[C@@H]21"
  CAT: "inactive"
- MOLECULE: "C=C1C(=O)O[C@H]2[C@H]1CC/C(Cn1cc(Cn3ccc4cc(Cl)ccc43)nn1)=C\\CC[C@@]1(C)O[C@@H]21"
  CAT: "inactive"
- MOLECULE: "CNC(=O)c1ccc(Nc2nc(OC3CCCC3)c3c(-c4ccc5nc(C)oc5c4)c[nH]c3n2)c(OC)c1"
  CAT: "inactive"
- MOLECULE: "CCN(CC)CCCC(C)N/C(c1cccc(OC)c1)=c1\\c(=O)[nH]n(-c2c3ccccc3nc3ccccc23)c(=O)\\c1=C(/NC(C)CCCN(CC)CC)c1cccc(OC)c1 (stereo not given)"
  CAT: "inactive"
- MOLECULE: "Cc1cc(Nc2ncc(Cl)c(Nc3ccccc3S(=O)(=O)C(C)C)n2)c(OC(C)C)cc1C1CCNCC1"
  CAT: "inactive"
- MOLECULE: "CCN(CC)CCCN1C(=O)c2c(c(C)c3c(oc4cc(O)ccc43)c2C)C1=O"
  CAT: "active"
- MOLECULE: "Fc1ccc(Nc2ccc3cc(OCCCN4CCOCC4)ccc3n2)cc1F"
  CAT: "inactive"
- MOLECULE: "COc1cc(/C=C2\\C[C@H]3[C@@H]4CC=C5C[C@@H](OC(C)=O)CC[C@]5(C)[C@H]4CC[C@]3(C)[C@H]2OC(C)=O)ccc1OCCCn1ccnc1"
  CAT: "inactive"
- MOLECULE: "COc1cc(N)ccc1Nc1c2ccccc2nc2ccccc12"
  CAT: "inactive"
- MOLECULE: "COc1cc(C(=O)O)ccc1NC(=O)[C@@H]1N[C@@H](CC(C)(C)C)[C@](C#N)(c2ccc(Cl)cc2F)[C@H]1c1cccc(Cl)c1F"
  CAT: "inactive"

###

Test system: HS 578T breast
Test: NCI tumour cell line growth inhibition, 48 h

- COMPOUND: "OC1OC(c2ccc[nH]2)C(F)(F)C(F)(F)C1(F)F (centres undefined)"
  UNIT_INFO: "µM"
  OPERATOR: ">"
  TGI: 100
- COMPOUND: "CO[C@H]1C[C@@H]2CC[C@@H](C)[C@@](O)(O2)C(=O)C(=O)N2CCCC[C@H]2C(=O)O[C@H]([C@H](C)C[C@@H]2CC[C@@H](OC(=O)C(C)(CO)CO)[C@H](OC)C2)CC(=O)[C@H](C)/C=C(\\C)[C@@H](O)[C@@H](OC)C(=O)[C@H](C)C[C@H](C)/C=C/C=C/C=C/1C"
  UNIT_INFO: "µM"
  OPERATOR: "="
  TGI: 17.2
- COMPOUND: "Cc1c(N(C(=O)c2cc(-c3cc(Cl)ccc3C(=O)N3Cc4ccccc4C[C@H]3CN3CCOCC3)n(C)c2C)c2ccc(O)cc2)cc(C#N)n1C"
  UNIT_INFO: "µM"
  OPERATOR: "="
  TGI: 75.3
- COMPOUND: "COc1c(C(=O)O)cccc1-c1cccc(C(=O)NCCN(CCNC(=O)c2cccc(-c3cccc(C(=O)O)c3OC)c2OC)CCNC(=O)c2cccc(-c3cccc(C(=O)O)c3OC)c2OC)c1OC"
  UNIT_INFO: "µM"
  OPERATOR: "="
  TGI: 81.1
- COMPOUND: "COc1cc(C(=O)O)ccc1NC(=O)[C@@H]1N[C@@H](CC(C)(C)C)[C@](C#N)(c2ccc(Cl)cc2F)[C@H]1c1cccc(Cl)c1F"
  UNIT_INFO: "µM"
  OPERATOR: "="
  TGI: 15.8
- COMPOUND: "Nc1ccn(C2OC(COP(=O)(O)O)C(O)C2O)c(=O)n1 (centres undefined)"
  UNIT_INFO: "µM"
  OPERATOR: ">"
  TGI: 100
- COMPOUND: "C/C(=C\\c1csc(C)n1)[C@@H]1C[C@@H]2O[C@]2(C)CCC[C@H](C)[C@H](O)[C@@H](C)C(=O)C(C)(C)[C@@H](O)CC(=O)O1 (tested in a mixture with another compound)"
  UNIT_INFO: "µM"
  OPERATOR: ">"
  TGI: 1
- COMPOUND: "O=C(NN1C(=O)/C(=C/c2ccc(Cl)cc2)N=C1c1ccccc1)c1c(Cl)c(Cl)c(Cl)c(Cl)c1-c1nc2ccccc2[nH]1"
  UNIT_INFO: "µM"
  OPERATOR: "="
  TGI: 95.3
- COMPOUND: "Fc1ccc(Nc2ccc3cc(OCCCN4CCOCC4)ccc3n2)cc1F"
  UNIT_INFO: "µM"
  OPERATOR: "="
  TGI: 9.2
- COMPOUND: "CC1=CC[C@@]2(C)[C@@H]([C@@H]1C)[C@H]1CC[C@@H]3[C@@]4(C)CC[C@H](O)C(C)(C)[C@@H]4CC[C@@]3(C)[C@]1(C)C[C@@H]2O"
  UNIT_INFO: "µM"
  OPERATOR: ">"
  TGI: 74
- COMPOUND: "CNC(=O)c1ccc(Nc2nc(OC3CCCC3)c3c(-c4ccc5nc(C)oc5c4)c[nH]c3n2)c(OC)c1"
  UNIT_INFO: "µM"
  OPERATOR: ">"
  TGI: 100
- COMPOUND: "OC(c1ccc(-c2ccccc2)cc1)(c1ccc(-c2ccccc2)cc1)c1ccc(-c2ccccc2)cc1"
  UNIT_INFO: "µM"
  OPERATOR: ">"
  TGI: 100
- COMPOUND: "O=C1NC(=O)[C@H]2C3C=CC([C@@H]12)[C@@H]1C(=O)NC(=O)[C@H]31"
  UNIT_INFO: "µM"
  OPERATOR: ">"
  TGI: 100
- COMPOUND: "O=C1OC2(c3ccccc31)c1cc(I)c(O)c(I)c1Oc1c2cc(I)c(O)c1I"
  UNIT_INFO: "µM"
  OPERATOR: ">"
  TGI: 100
